- Tested on: 15-PGDH luciferase fusion construct in Vaco503 reporter cell line
- Assay summary: 15-PGDH-luciferase fusion gene reporter induction, V503 cells
- Format: cell-based
- Condition notes: read-out: V503-3H9-7 reporter activity, % ([…]), V503 reporter cells, […] compound; % induction of luciferase activity over basal level; read-out: V503-3H9-7 reporter activity, % (7.5 μM)
Would you mind labelling by activation at […]? At or over 50% is True, under is False.

COc1ccc(OC)c(N(CC(=O)Nc2cccnc2)C(C)=O)c1 [SW202952] : False

query: Does activation at […] meet or surpass 50% for COc1ccc(OC)c(N(CC(=O)Nc2ccnc(F)c2)S(=O)(=O)c2ccccc2)c1 [SW208005] ?
result: True

query: Does activation at […] meet or surpass 50% for COc1ccc(OC)c(N(CC(=O)Nc2cncnc2)S(=O)(=O)c2ccccc2)c1 [SW203683] ?
result: False

query: Does activation at […] meet or surpass 50% for COc1ccc(OC)c(N(CC(=O)OC(C)C)S(=O)(=O)c2ccccc2)c1 [SW202971] ?
result: True

query: Does activation at […] meet or surpass 50% for COc1ccc(OC)c(N(CC(=O)Nc2ccccc2C)S(=O)(=O)c2ccccc2)c1 [SW202975] ?
result: True

query: Does activation at […] meet or surpass 50% for COc1ccc(OC)c(N(CC(=O)O)S(=O)(=O)c2ccccc2)c1 [SW122063] ?
result: False

query: Does activation at […] meet or surpass 50% for COc1ccc(OC)c(N(CC(=O)Nc2ccnnc2)S(=O)(=O)c2ccccc2)c1 [SW203685] ?
result: False

query: Does activation at […] meet or surpass 50% for COc1ccc(OC)c(N(CC(=O)Nc2cccnc2)S(=O)(=O)c2ccccc2OC(F)(F)F)c1 [SW202954] ?
result: False

query: Does activation at […] meet or surpass 50% for COc1cccc(NC(=O)CN(c2cc(OC)ccc2OC)S(=O)(=O)c2ccccc2)c1 [SW202976] ?
result: True

query: Does activation at […] meet or surpass 50% for COc1ccc(OC)c(N(CC(=O)OC2CCCCC2)S(=O)(=O)c2ccccc2)c1 [SW202978] ?
result: True

query: Does activation at […] meet or surpass 50% for COc1ccc(OC)c(N(CC(=O)Nc2ccnc(C)c2)S(=O)(=O)c2ccccc2)c1 [SW202966] ?
result: True

query: Does activation at […] meet or surpass 50% for COc1ccc(OC)c(N(CC(=O)Nc2cccnc2C)S(=O)(=O)c2ccccc2)c1 [SW202968] ?
result: True
